Target: Glutamate receptor ionotropic, NMDA 1 (Rattus norvegicus, UniProt P35439)
Assay: Inhibition of [3H]- glycine binding to NMDA receptor from rat cortical membranes.
Type: cell membranes, Membrane
pIC50: −log10 of the molar value.
READOUT_TYPE: pIC50

1) N[C@@H]1C[C@H](C(=O)O)Nc2cc(Cl)cc(Cl)c21
4.85
2) O=C(N[C@H]1C[C@H](C(=O)O)Nc2cc(Cl)cc(Cl)c21)C1CCCCC1
6.77
3) O=C(O)[C@H]1C[C@H](NC(=O)N2CCc3ccccc32)c2c(Cl)cc(Cl)cc2N1
6.66
4) O=C(O)[C@H]1C[C@H](NC(=S)Nc2ccccc2)c2c(Cl)cc(Cl)cc2N1
7.05
5) O=C(N[C@H]1C[C@H](C(=O)O)Nc2cc(Cl)cc(Cl)c21)C1c2ccccc2-c2ccccc21
7.60

* * *

Biological target: Glutamate receptor ionotropic, NMDA 1 (Rattus norvegicus, UniProt P35439)
Assay: Inhibition of [3H]- glycine binding to NMDA receptor from rat cortical membranes.
Type: cell membranes, Membrane
Below, each of the compounds is paired with its reported IC50 value.
READOUT_TYPE: IC50 (µM)

1) O=C(O)[C@H]1C[C@H](NS(=O)(=O)c2ccccc2)c2c(Cl)cc(Cl)cc2N1
5.2
2) CC(C)(C)OC(=O)N[C@@H]1C[C@H](C(=O)O)Nc2cc(Cl)cc(Cl)c21
11.4
3) Cc1ccc(NC(=O)N[C@H]2C[C@H](C(=O)O)Nc3cc(Cl)cc(Cl)c32)cc1
0.005
4) O=C(O)[C@H]1C[C@H](N2Cc3ccccc3NC2=O)c2c(Cl)cc(Cl)cc2N1
0.51
